Reported MIC values for a set of molecules
System: Streptococcus pneumoniae
Test: Antibacterial activity against Streptococcus pneumoniae ATCC 6305 after overnight incubation by broth microdilution method
Format: functional
Use µg/mL as the unit, but write only the number.

Solved entries:
smiles-notation	experimental-value
CC1(C)SN(CC(=O)OCc2ccccc2)C(=O)[C@@H]1N1C(=O)[C@@H](N2C(=O)c3ccccc3C2=O)[C@@H]1Cl	64
CC1(C)SN(Cc2ccccc2)C(=O)[C@@H]1N1C(=O)[C@@H](N2C(=O)c3ccccc3C2=O)[C@@H]1Cl	64
CC1(C)S[C@@H]2[C@H](NC(=O)[C@H](N)c3ccc(O)cc3)C(=O)N2[C@H]1C(=O)O	4

Task item: Which MIC is listed for C[C@@H](C(=O)OCc1ccccc1)N1SC(C)(C)[C@@H](N2C(=O)[C@@H](N3C(=O)c4ccccc4C3=O)[C@@H]2Cl)C1=O ?
Reply: 64

Task item: Return reported MIC; argument: CC1(C)SN([C@H](C(=O)OCc2ccccc2)c2ccccc2)C(=O)[C@@H]1N1C(=O)[C@@H](N2C(=O)c3ccccc3C2=O)[C@@H]1Cl
Reply: 8
